# System: MLKL phosphorylation in HT29-L23 human colorectal adenocarcinoma cells
# Test Summary: MLKL phosphorylation high-content assay
# Format: cell-based
# Experimental Conditions: Homo sapiens, 6 h, read-out: pMLKL IC50, HT29-L23 cells; necroptosis induced with TNFα, SMAC mimetic and Z-VAD, 6 h; maximal inhibition defined by Nec1s
pIC50: −log10 of the molar value.
Label Y when pIC50 is at or above 9; otherwise label N.

{"columns": ["Compound", "Answer Label"],
 "data": [
  ["Nc1nc2cc(-c3ccc(Cl)c(C(=O)NCC[C@H](O)c4ccc(Cl)cc4)c3F)ccn2n1", "N"],
  ["Nc1nc2cc(-c3ccc(C(F)(F)F)c(C(=O)NCC(F)(F)[C@@H](O)c4ccc(F)cc4)c3F)ccn2n1", "Y"],
  ["COC(=O)c1ccc(CCCNC(=O)c2c(Cl)ccc(-c3ccn4nc(N)nc4c3)c2F)cc1", "N"],
  ["Cc1ccc(-c2ccn3nc(N)nc3c2)c(F)c1C(=O)NCC(F)(F)[C@@H](OC(N)=O)c1ccc(F)cc1", "N"],
  ["[2H]C([2H])([2H])c1ccc(-c2ccn3nc(N)nc3c2)c(F)c1C(=O)NC[C@@H](F)[C@@](C)(O)c1ccc(F)cc1", "Y"],
  ["CCc1ccc(-c2ccn3nc(N)nc3c2)c(F)c1C(=O)NCC(F)(F)C(O)c1ccc(F)cn1 (single isomer, unassigned)", "N"]
]}

====

# Study System: His-GST-TVMV-hRIPK1(1-324) (Homo sapiens, UniProt Q13546)
# Construct: The coding region of human RIPK1(1-324) flanked by NdeI site at 5′ end; made in house; host or cells: Spodoptera frugiperda Sf9 insect cells (baculovirus, Bac-to-Bac)
# Sequence (Q13546 1-324): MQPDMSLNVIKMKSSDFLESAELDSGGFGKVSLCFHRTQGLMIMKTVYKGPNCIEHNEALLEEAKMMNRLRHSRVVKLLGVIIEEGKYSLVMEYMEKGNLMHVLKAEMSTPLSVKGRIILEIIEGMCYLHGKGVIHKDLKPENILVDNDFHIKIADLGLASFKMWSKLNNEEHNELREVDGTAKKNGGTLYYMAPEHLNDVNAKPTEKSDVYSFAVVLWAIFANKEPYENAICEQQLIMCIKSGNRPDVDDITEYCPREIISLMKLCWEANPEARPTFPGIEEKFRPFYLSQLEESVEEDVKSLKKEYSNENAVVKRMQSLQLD
# Test Summary: biochemical
# Assay type: binding
# Experimental Conditions: HTRF probe displacement, 1 h at rt; read-out: RIPK1 IC50
Overview of recorded log10 of IC50 for various compounds
Experimental Endpoint: log10 of IC50 (log10 of the value in nM)

{"columns": ["Compound", "Experimental Endpoint", "Test Value"],
 "data": [
  ["CCc1ccc(-c2ccn3nc(N)nc3c2)c(F)c1C(=O)NCC[C@H](O)c1ccc(Cl)cc1", "log10 of IC50", 0.43],
  ["Cc1ccc(-c2ccn3nc(N)nc3c2)cc1C(=O)NCC[C@@H](O)c1ccc(Cl)cc1", "log10 of IC50", 0.40],
  ["[2H]C([2H])([2H])c1ccc(-c2ccn3nc(N)nc3c2)c(F)c1C(=O)NC[C@@H](F)[C@@](C)(O)c1ccc(F)cc1", "log10 of IC50", 0.67],
  ["Cc1ccc(-c2ccn3nc(N)nc3c2)c(F)c1C(=O)NCC(F)(F)C(=O)c1ccc(F)cc1", "log10 of IC50", 0.86],
  ["Cc1ccc(-c2ccn3nc(N)nc3c2)c(F)c1C(=O)NCCC(O)c1ccccc1F (single isomer, unassigned) [Example 71]", "log10 of IC50", 1.26],
  ["CC(O)(c1ccc(Cl)cc1)C(F)(F)CNC(=O)c1c(Cl)ccc(-c2ccn3nc(N)nc3c2)c1F (single isomer, unassigned) [Example 224]", "log10 of IC50", 0.72],
  ["[2H]C([2H])(CC([2H])(O)c1ccc(Cl)cc1)NC(=O)c1c(Cl)ccc(-c2ccn3nc(N)nc3c2)c1F (single isomer, unassigned) [Example 77]", "log10 of IC50", 0.46],
  ["Cc1ccc(-c2ccn3nc(N)nc3c2)c(F)c1C(=O)NCCC(O)c1ccc(Cl)c(Cl)c1 (single isomer, unassigned) [Example 34]", "log10 of IC50", -0.10],
  ["[2H]C([2H])(CC([2H])(O)c1ccc(Cl)cc1)NC(=O)c1c(C)ccc(-c2ccn3nc(N)nc3c2)c1F (single isomer, unassigned) [Example 54]", "log10 of IC50", 0.43],
  ["CC(O)(c1ccc(F)cc1)C(F)(F)CNC(=O)c1c(Cl)ccc(-c2ccn3nc(N)nc3c2)c1F (single isomer, unassigned) [Example 88]", "log10 of IC50", 0.56],
  ["Cc1ccc(C(O)C(F)(F)CNC(=O)c2c(Cl)ccc(-c3ccn4nc(N)nc4c3)c2F)cc1 (stereo not shown) [Example 173]", "log10 of IC50", -0.05],
  ["[2H]C([2H])(CC([2H])(O)c1ccc(Cl)cc1)NC(=O)c1c(C)ccc(-c2ccn3nc(N)nc3c2)c1F (racemic) [Example 14]", "log10 of IC50", 0.04],
  ["[2H]C([2H])(CC([2H])(O)c1ccc(Cl)cc1)NC(=O)c1c(F)ccc(-c2ccn3nc(N)nc3c2)c1F (single isomer, unassigned) [Example 251]", "log10 of IC50", 1.20]
]}

====

# Study System: His-GST-TVMV-hRIPK1(1-324) (Homo sapiens)
# Construct: The coding region of human RIPK1(1-324) flanked by NdeI site at 5′ end; made in house; host or cells: Spodoptera frugiperda Sf9 insect cells (baculovirus, Bac-to-Bac)
# Test Summary: biochemical
# Assay type: binding
# Experimental Conditions: HTRF probe displacement, 1 h at rt; read-out: RIPK1 IC50
Overview of recorded IC50 for various compounds

{"columns": ["Compound", "Study System", "IC50, nM"],
 "data": [
  ["Cc1ccc(-c2ccn3nc(N)nc3c2)c(F)c1C(=O)NCC(F)(F)Cc1ccc(F)cc1", "His-GST-TVMV-hRIPK1(1-324) (Homo sapiens)", 2.6],
  ["[2H]C([2H])([2H])c1ccc(-c2ccn3nc(N)nc3c2)c(F)c1C(=O)NCC1(C(O)c2ccc(F)cc2)CC1 (single isomer, unassigned) [Example 307]", "His-GST-TVMV-hRIPK1(1-324) (Homo sapiens)", 9.6],
  ["Nc1nc2cc(-c3ccc(Cl)c(C(=O)NC[C@H](F)[C@@H](O)c4ccc(F)cc4)c3F)ccn2n1 (single isomer, unassigned)", "His-GST-TVMV-hRIPK1(1-324) (Homo sapiens)", 15],
  ["Cc1ccc(-c2ccn3nc(N)nc3c2)c(F)c1C(=O)NCC(C)(F)C(O)c1ccc(F)cc1 (single isomer, unassigned) [Example 205]", "His-GST-TVMV-hRIPK1(1-324) (Homo sapiens)", 6.2],
  ["Nc1nc2cc(-c3ccc(Cl)c(C(=O)NC[C@@H](F)[C@@H](O)c4ccc(F)cc4)c3F)ccn2n1 (single isomer, unassigned)", "His-GST-TVMV-hRIPK1(1-324) (Homo sapiens)", 2.9],
  ["Nc1nc2cc(-c3ccc(Cl)c(C(=O)NCCC(O)c4ccc(C(F)(F)F)cc4)c3F)ccn2n1 (single isomer, unassigned) [Example 86]", "His-GST-TVMV-hRIPK1(1-324) (Homo sapiens)", 2.2]
]}

====

Overview of recorded pIC50 for various compounds
# Study System: His-GST-TVMV-hRIPK1(1-324) (Homo sapiens)
# Construct: The coding region of human RIPK1(1-324) flanked by NdeI site at 5′ end; made in house; host or cells: Spodoptera frugiperda Sf9 insect cells (baculovirus, Bac-to-Bac)
# Sequence (Q13546 1-324): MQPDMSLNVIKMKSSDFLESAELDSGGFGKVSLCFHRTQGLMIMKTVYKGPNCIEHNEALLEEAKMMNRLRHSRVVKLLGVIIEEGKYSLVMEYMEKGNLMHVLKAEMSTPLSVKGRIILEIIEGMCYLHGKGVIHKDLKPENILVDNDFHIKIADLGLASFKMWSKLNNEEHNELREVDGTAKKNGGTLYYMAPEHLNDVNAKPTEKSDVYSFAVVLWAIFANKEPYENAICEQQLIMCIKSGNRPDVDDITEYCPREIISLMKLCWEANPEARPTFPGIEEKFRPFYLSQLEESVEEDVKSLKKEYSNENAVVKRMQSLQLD
# Test Summary: biochemical
# Format: binding
# Experimental Conditions: HTRF probe displacement, 1 h at rt; read-out: RIPK1 IC50
pIC50: −log10 of the molar value.

{"columns": ["Compound", "pIC50"],
 "data": [
  ["Cc1ccc(-c2ccn3nc(N)nc3c2)c(F)c1C(=O)NCCCC1CCCCC1", 9.52],
  ["Nc1nc2cc(-c3ccc(Cl)c(C(=O)NCC(F)(F)C(O)c4cccc(Cl)n4)c3F)ccn2n1 (single isomer, unassigned) [Example 262]", 7.85],
  ["Nc1nc2cc(-c3ccc(Cl)c(C(=O)NCC(F)(F)C(O)c4cc(F)ccc4F)c3F)ccn2n1 (single isomer, unassigned) [Example 176]", 9.52],
  ["Cc1ccc(-c2ccn3nc(N)nc3c2)c(F)c1C(=O)NCC(C)(F)C(O)c1ccc(F)cc1 (single isomer, unassigned) [Example 204]", 8.24],
  ["[2H]C([2H])([2H])c1ccc(-c2ccn3nc(N)nc3c2)c(F)c1C(=O)NCC1(C([2H])(O)c2ccc(F)cc2)CC1 (single isomer, unassigned) [Example 310]", 8.24],
  ["Nc1nc2cc(-c3ccc(Cl)c(C(=O)NCC(F)(F)C4(c5ccc(F)cc5)COC4)c3F)ccn2n1", 7.72],
  ["Cc1ccc(-c2ccn3nc(N)nc3c2)c(F)c1C(=O)NCCC(O)c1cccc(Cl)c1 (single isomer, unassigned) [Example 45]", 8.52],
  ["Cc1ccc(-c2ccn3nc(N)nc3c2)c(F)c1C(=O)NCC(F)(F)C(N)c1ccc(F)cc1 (centres unmarked)", 8.19],
  ["Cc1ccc(-c2ccn3nc(N)nc3c2)c(F)c1C(=O)NCCC(O)c1ccc(F)cc1 (single isomer, unassigned) [Example 50]", 9.52],
  ["COc1ccc(-c2ccn3nc(N)nc3c2)c(F)c1C(=O)NCC(F)(F)C(O)c1ccc(Cl)c(Cl)c1 (centres unmarked) [Example 268]", 8.42],
  ["Nc1nc2cc(-c3ccc(Cl)c(C(=O)NCC(F)(F)C(O)c4cccc(F)c4)c3F)ccn2n1 (single isomer, unassigned) [Example 168]", 9.52],
  ["Cc1ccc(-c2ccn3nc(N)nc3c2)c(F)c1C(=O)NCCC(O)c1ccc(F)cc1 (single isomer, unassigned) [Example 51]", 8.43],
  ["Nc1nc2cc(-c3ccc(Cl)c(C(=O)NCCC4(c5ccc(F)cc5)CC4)c3F)ccn2n1", 8.80],
  ["Cc1ccc(-c2ccn3nc(N)nc3c2)c(F)c1C(=O)NCCC(C)(C)c1ccccc1", 8.68],
  ["Cc1ccc(-c2ccn3nc(N)nc3c2)c(F)c1C(=O)NCCC(O)c1ccccc1F (single isomer, unassigned) [Example 70]", 7.96],
  ["Nc1nc2cc(-c3ccc(Cl)c(C(=O)NCC(F)C(O)c4ccc(F)cc4)c3F)ccn2n1 (centres unmarked)", 8.13],
  ["Nc1nc2cc(-c3ccc(Cl)c(C(=O)NCCC(O)c4ccc(F)cc4)c3F)ccn2n1 (single isomer, unassigned) [Example 80]", 8.05],
  ["Nc1nc2cc(-c3ccc(Cl)c(C(=O)NCC(F)(F)C(=O)c4ccc(F)cc4)c3F)ccn2n1", 7.82],
  ["Cc1ccc(-c2ccn3nc(N)nc3c2)c(F)c1C(=O)NCC[C@@H](O)c1ccc(Cl)cc1", 8.64],
  ["Nc1nc2cc(-c3ccc(Cl)c(C(=O)NC[C@H](F)[C@H](O)c4ccc(F)cc4)c3F)ccn2n1 (single isomer, unassigned)", 7.80],
  ["Cc1cc(F)c(-c2ccn3nc(N)nc3c2)cc1C(=O)NCCC(O)c1ccc(Cl)cn1 (single isomer, unassigned) [Example 6]", 8.24],
  ["Nc1nc2cc(-c3ccc(Cl)c(C(=O)NCCC(O)c4ccc(C(F)(F)F)cc4)c3F)ccn2n1 (single isomer, unassigned) [Example 85]", 8.68],
  ["[2H]C([2H])([2H])OC(c1ccc(F)cc1)C(F)(F)CNC(=O)c1c(C)ccc(-c2ccn3nc(N)nc3c2)c1F (single isomer, unassigned) [Example 235]", 8.37],
  ["CCc1ccc(-c2ccn3nc(N)nc3c2)c(F)c1C(=O)NCC(F)(F)C(O)c1ccc(F)cn1 (single isomer, unassigned)", 7.89],
  ["Nc1nc2cc(-c3ccc(Cl)c(C(=O)NCC(F)(F)C(O)c4ccc(OC(F)F)cc4)c3F)ccn2n1 (centres unmarked) [Example 187]", 8.49],
  ["Cc1ccc(-c2ccn3nc(N)nc3c2)c(F)c1C(=O)NCCC(O)c1ccc(C(F)(F)F)cc1 (single isomer, unassigned) [Example 57]", 8.51]
]}
